A collection of compounds and their measured melting point

COMPOUND: CC(C)(F)CC[C@H](C[C@H](O)[C@H](Cc1ccccc1)NC(=O)c1cnc2ccccc2n1)C(=O)NCCc1cccs1 [Example 229]
melting point: 152 to 154 °C

COMPOUND: CC(C)(O)CC[C@H](C[C@H](O)[C@H](Cc1ccc(F)c(F)c1)NC(=O)c1cnc2ccccc2n1)C(N)=O [Example 323]
melting point: 110 to 120 °C

COMPOUND: CC(C)(F)CC[C@H](C[C@H](O)[C@H](Cc1ccc(I)cc1)NC(=O)c1cnc2ccccc2n1)C(N)=O [Example 250]
melting point: 185.5 to 187.5 °C

COMPOUND: NC(=O)[C@H](Cc1ccccc1)C[C@H](O)[C@H](Cc1ccccc1)NC(=O)c1cnc2c(F)cccc2c1 [Example 285]
melting point: 206 to 209 °C

Ask: Given NC(=O)[C@@H](C[C@H](O)[C@H](Cc1ccccc1)NC(=O)c1cnc2ccccc2n1)C1(O)CCC(C(F)(F)F)CC1 (stereo partly drawn) [Example 308] , respond with its melting point.
Result: 250 to 252 °C

Ask: Given O=C(N[C@@H](Cc1ccccc1)[C@@H](O)C[C@H](C(=O)NO)C1(O)CCCC1)c1cnc2ccccc2n1 [Example 281] , respond with its melting point.
Result: 110 to 112 °C

Ask: Given CNC(=O)[C@H](CC(C)C)C[C@H](O)[C@H](Cc1ccc2ccccc2c1)NC(=O)c1cnc2ccccc2n1 [Example 127] , respond with its melting point.
Result: 121 to 123 °C

Ask: Given COc1ccccc1CNC(=O)[C@H](CCC(C)(C)F)C[C@H](O)[C@H](Cc1ccccc1)NC(=O)c1cnc2ccccc2n1 [Example 227] , respond with its melting point.
Result: 135 °C

###

- PROTOCOL SUMMARY: Solubility
- Assay type: physicochemical
PARAMETER MEASURED: solubility

Ask: Given `CC(C)(O)CC[C@H](C[C@H](O)[C@H](Cc1cccs1)NC(=O)c1cnc2ccccc2n1)C(N)=O` , respond with its solubility.
Result: > 250 mg/mL

###

A collection of compounds and their measured melting point

COMPOUND: NC(=O)[C@H](C[C@H](O)[C@H](Cc1cccs1)NC(=O)c1cnc2ccccc2n1)C1(O)CCCCC1
melting point: 206 to 207 °C
//
COMPOUND: CC(C)(F)CC[C@H](C[C@H](O)[C@H](Cc1ccccc1)NC(=O)c1cnc2ccccc2n1)C(=O)NCCc1ccc(O)cc1
melting point: 138 to 140 °C
//
COMPOUND: COc1cccc(C[C@H](C[C@H](O)[C@H](Cc2ccccc2)NC(=O)c2cnc3ccccc3n2)C(N)=O)c1
melting point: 147 to 148 °C
//
COMPOUND: CNC(=O)[C@H](CC(C)C)C[C@H](O)[C@H](Cc1ccc(OCc2ccccc2)cc1)NC(=O)c1cnc2ccccc2c1
melting point: 178 to 179 °C
//
COMPOUND: CC(C)(O)CC[C@H](C[C@H](O)[C@H](Cc1ccc(F)c(F)c1)NC(=O)c1cnc2ccccc2n1)C(=O)NO
melting point: 150 to 153 °C
//
COMPOUND: CC(C)CNC(=O)CC[C@H](O)[C@H](Cc1ccccc1)NC(=O)c1cnc2ccccc2n1
melting point: 146 to 148 °C
//
COMPOUND: CNC(=O)[C@H](CC1CCCCC1)C[C@H](O)[C@H](Cc1ccc(Cl)cc1)NC(=O)c1cnc2ccccc2c1
melting point: 198 to 201 °C
//
COMPOUND: CC(C)(F)CC[C@H](C[C@H](O)[C@H](Cc1ccccc1)NC(=O)c1cnc2ccccc2n1)C(=O)NCc1ccncc1
melting point: 100 to 104 °C
//
COMPOUND: NC(=O)[C@@H](C[C@H](O)[C@H](Cc1ccccc1)NC(=O)c1cnc2ccccc2n1)C1(O)CCSCC1
melting point: 123 to 125 °C
//
COMPOUND: NC(=O)[C@@H](C[C@H](O)[C@H](Cc1ccccc1)NC(=O)c1cnc2ccccc2n1)C1(O)CCC(F)(F)CC1
melting point: 207.5 to 208.5 °C

Ask: Given CC1CCC(O)([C@H](C[C@H](O)[C@H](Cc2ccccc2)NC(=O)c2cnc3ccccc3n2)C(=O)NO)CC1 (some centres unmarked) , respond with its melting point.
Result: 114 to 116 °C

Ask: Given `CC(C)(F)CC[C@H](C[C@H](O)[C@H](Cc1ccccc1)NC(=O)c1cnc2ccccc2n1)C(=O)NCc1ccco1` , respond with its melting point.
Result: 155.5 to 156.5 °C

Ask: Given `NC(=O)[C@@H](C[C@H](O)[C@H](Cc1ccccc1)NC(=O)c1cnc2ccccc2n1)C1(O)CCCCCC1` , respond with its melting point.
Result: 189 to 191 °C

Ask: Given `CNC(=O)[C@H](CC(C)C)C[C@H](O)[C@H](Cc1ccc(F)cc1)NC(=O)c1cnc2ccccc2n1` , respond with its melting point.
Result: 153 to 156 °C
